compounds and their reported pIC50
- test-target: trypsin-like activity of the 26S proteasome (Homo sapiens, UniProt Q99436)
- Construct: endogenous in cells; host or cells: Jurkat (ATCC TIB-152, E6-1 clone) cell lysate
- Sequence (Q99436 44-277): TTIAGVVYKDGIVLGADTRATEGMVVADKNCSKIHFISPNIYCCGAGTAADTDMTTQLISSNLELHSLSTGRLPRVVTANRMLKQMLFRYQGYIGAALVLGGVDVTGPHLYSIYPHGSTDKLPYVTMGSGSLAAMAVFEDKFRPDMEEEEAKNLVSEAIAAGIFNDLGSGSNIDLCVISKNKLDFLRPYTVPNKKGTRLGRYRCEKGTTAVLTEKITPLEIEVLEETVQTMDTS
- protocol-text: Proteasome assay, trypsin-like (T-L) activity, SUC-RLR-AMC, Jurkat cell lysate
- Format: biochemical
- test-parameters: Table 3, P2/P3 analogues; ± S.D.; read-out: Proteasome Inhibition T-L-like IC50
Reminder that pIC50 means the negative base-10 logarithm of the concentration expressed in mol/L.

Below, 2 compounds whose answers are already recorded.
CC[C@H](C)[C@@H]1C(=O)O[C@H]1C(=O)N[C@@H](COCc1ccccc1)C(=O)N[C@H](C(=O)OCc1ccccc1)C(C)C [Compound 10j] = 6.10
CC[C@H](C)[C@@H]1C(=O)O[C@H]1C(=O)N[C@H](C(=O)N[C@H](C(=O)OCc1ccccc1)C(C)C)C(C)(C)C [Compound 10e] = 5.29

Okay, now this compound:
Incoming: Which measured pIC50 value corresponds to CC[C@H](C)[C@@H]1C(=O)O[C@H]1C(=O)N[C@H](C(=O)N[C@@H](COCc1ccccc1)C(=O)OCc1ccccc1)C(C)C [Compound 10k] ?
Outgoing: 5.87
